# test method notes: Human HepG2 cell viability assay in 384 well format
# Format: toxicity, cell-based
# Parameters: dose 125 nL, time 70.5 hour; concentration not given beside the values
# test settings: HepG2 cells, read-out: Inhibition
endpoint: cytotoxicity at 70.5 h (%)
One number for each entry, in %.

Here is how some compounds turned out for cytotoxicity at 70.5 h.
compound=CC(C)Cc1noc(CN2CCCN(C(=O)c3ccccc3Cl)CC2)n1 unit_of_measure=% readout_value=4.22
compound="O=C(CN1CCCC(Cn2cncn2)C1)NCc1ccccc1F (stereo not drawn)" unit_of_measure=% readout_value=-4.63
compound=O=C([C@H]1CCCO1)N1CCC2(CC1)Cc1ccccc1CNC2=O unit_of_measure=% readout_value=3.51
compound="O=C(CN1CCOCC1)N1CCC2(CCCN(C3CCOCC3)C2=O)C1 (stereo not drawn)" unit_of_measure=% readout_value=0.199
compound=O=C(COCc1ccccc1)N1CCC(OCc2cccnc2)CC1 unit_of_measure=% readout_value=-3.09

// input: 4 compounds below; output: cytotoxicity at 70.5 h for each
1. Cc1nc(N2CCC(C(O)c3nccn3C)CC2)c2c(C)noc2n1 (stereo not drawn)
2. CC(NC(=O)NCc1ccoc1)c1ccc2c(c1)CC(=O)N2 (stereo not drawn)
3. COCCCN(Cc1ccccc1Cl)C1CCS(=O)(=O)C1 (stereo not drawn)
4. CC(NCCCn1ccnc1)c1ccc(N2CCCS2(=O)=O)cc1 (stereo not drawn)

Response line:
1: 20.2; 2: -4.73; 3: 25.3; 4: 31

// input: 2 compounds below; output: cytotoxicity at 70.5 h for each
1. CCN1CCN(S(=O)(=O)N2CCC(OC)CC2)[C@H]2CS(=O)(=O)C[C@H]21
2. CCS(=O)(=O)N1CCC(c2nnc(CN3CCCCC3)n2C)CC1

Response line:
1: -9.02; 2: -3.65

// input: 4 compounds below; output: cytotoxicity at 70.5 h for each
1. CC(C)c1noc(C(C)N2CCN(Cc3noc(C4CC4)n3)CC2)n1 (stereo not drawn)
2. CS(=O)(=O)N1CCCC(c2nc(-c3ccccc3)c[nH]2)C1 (stereo not drawn)
3. COc1cccc(CSCC2=Nc3ccccc3S(=O)(=O)N2)c1
4. CN(C)C(=O)c1nc2c(n1C)CCN(Cc1ccccc1)C2

Response line:
[-10.9, -7.34, 3.53, 0.767]

// input: 7 compounds below; output: cytotoxicity at 70.5 h for each
1. CNC(=O)C(C)(C)NC(=O)c1cc(COc2ccccc2OC)[nH]n1
2. CC(C)c1nn(C)cc1CNC1CCOc2ccccc21 (stereo not drawn)
3. CC(CNC(=O)c1ccccc1Oc1cccnc1)N(C)C (stereo not drawn)
4. Cn1cc(CN(C(=O)c2ccc3ncsc3c2)C2CC2)cn1
5. COCCn1ccnc1CN1CCc2[nH]cnc2C1c1ccccn1 (stereo not drawn)
6. O=C(CS(=O)(=O)c1ncccc1Cl)NC1CCCc2ccccc21 (stereo not drawn)
7. CCS(=O)(=O)N1CC(=O)N(CCCc2ccccc2)CC(O)C1 (stereo not drawn)

Response line:
1: -8.56; 2: -7.85; 3: -6.12; 4: 19.6; 5: -11.2; 6: 12; 7: -3.91

The origin of these recorded values is ChEMBL document CHEMBL3507680.
